Target: Importin subunit beta-1 (Homo sapiens) (UniProt Q14974)
Sequence (Q14974 whole entry, looked up): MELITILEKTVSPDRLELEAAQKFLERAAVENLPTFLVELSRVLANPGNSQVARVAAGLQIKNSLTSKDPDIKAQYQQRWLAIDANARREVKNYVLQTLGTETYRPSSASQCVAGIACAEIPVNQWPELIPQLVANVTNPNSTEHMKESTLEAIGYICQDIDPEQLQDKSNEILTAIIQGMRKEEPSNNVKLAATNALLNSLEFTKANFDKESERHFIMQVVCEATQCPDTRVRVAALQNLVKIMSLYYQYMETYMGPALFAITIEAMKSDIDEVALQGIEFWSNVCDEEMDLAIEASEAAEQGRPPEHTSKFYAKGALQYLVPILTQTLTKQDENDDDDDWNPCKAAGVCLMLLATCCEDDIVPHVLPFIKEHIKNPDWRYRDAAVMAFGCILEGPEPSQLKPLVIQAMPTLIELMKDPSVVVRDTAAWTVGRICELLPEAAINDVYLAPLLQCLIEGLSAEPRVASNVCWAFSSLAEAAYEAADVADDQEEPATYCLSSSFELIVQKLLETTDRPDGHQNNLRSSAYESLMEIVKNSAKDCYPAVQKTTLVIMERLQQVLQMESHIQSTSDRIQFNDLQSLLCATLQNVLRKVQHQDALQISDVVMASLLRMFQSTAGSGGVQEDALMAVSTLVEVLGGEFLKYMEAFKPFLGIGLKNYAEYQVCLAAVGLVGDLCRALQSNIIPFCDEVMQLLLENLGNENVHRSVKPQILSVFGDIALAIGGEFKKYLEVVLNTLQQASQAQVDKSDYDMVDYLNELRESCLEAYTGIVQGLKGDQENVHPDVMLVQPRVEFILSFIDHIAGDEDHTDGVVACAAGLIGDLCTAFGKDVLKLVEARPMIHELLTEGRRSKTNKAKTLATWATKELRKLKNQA
Assay: qHTS Assay for Inhibitors of Rango (Ran-regulated importin-beta cargo) - Importin beta complex formation; also: nearly all actives have a fitted effect of over 15% in size
Conditions: Rango CFP/YFP FRET sensor + importin beta, 45 min; series mostly up to 92.2 µM
About 100 (0.029%) of roughly 340,000 compounds were called active. Not shown: some 8% with an inconclusive outcome. Shown is part of a subset that was picked to be rich in actives.
assay.endpoint: outcome

## Task Fill in the recorded outcome for this compound, with Importin subunit beta-1 (Homo sapiens) (UniProt Q14974) as test system: `O=S(=O)(Cc1ccc(Cl)cc1Cl)c1ccc(Cl)cc1`
## Result inactive

## Task Same again, this time with `C#CCOCCOCCOCCNc1nc(N2CCOCC2)nc(N2CCN(C(=O)[C@H](Cc3ccc(O)cc3)n3cc(CCO)nn3)CC2)n1`
## Result inactive

## Task Same again, this time with `Cc1ccc(S(=O)(=O)N2CCN(C(=O)c3cc(S(=O)(=O)N4CCOCC4)ccc3F)CC2)cc1`
## Result inactive

Source listed as PubChem BioAssay AID540263.
